# assayed-target: wild-type human ALK (cytoplasmic domain, amino acids 1058-1620, N-terminal GST fusion) (Homo sapiens)
# Construct: The cytoplasmic domain (amino acids 1058-1620) of wild-type human ALK; GST (N); made in house; host or cells: SF9 insect cells
# Sequence (Q9UM73 1058-1620): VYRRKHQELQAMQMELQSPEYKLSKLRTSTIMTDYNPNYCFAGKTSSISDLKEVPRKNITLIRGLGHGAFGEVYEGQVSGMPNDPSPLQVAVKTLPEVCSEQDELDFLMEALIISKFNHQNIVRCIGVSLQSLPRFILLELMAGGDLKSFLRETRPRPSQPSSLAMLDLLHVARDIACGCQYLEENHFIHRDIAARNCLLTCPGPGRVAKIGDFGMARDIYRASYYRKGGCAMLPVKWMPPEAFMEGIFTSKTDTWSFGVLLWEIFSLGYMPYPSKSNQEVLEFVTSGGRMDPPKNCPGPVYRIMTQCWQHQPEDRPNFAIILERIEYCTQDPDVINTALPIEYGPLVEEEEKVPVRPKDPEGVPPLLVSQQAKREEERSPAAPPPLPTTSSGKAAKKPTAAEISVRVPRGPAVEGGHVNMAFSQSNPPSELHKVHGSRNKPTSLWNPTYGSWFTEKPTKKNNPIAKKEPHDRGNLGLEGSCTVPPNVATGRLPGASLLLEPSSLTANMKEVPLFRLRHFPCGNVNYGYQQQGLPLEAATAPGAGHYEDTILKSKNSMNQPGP
# experiment-description: ALK Inhibition in Enzyme Assay (Lance TR-FRET kinase assay)
# Type: biochemical

{"smiles-code": "CC(C)NC(=O)[C@H]1CC[C@@H](n2/c(=N/C(=O)c3ccc(F)cc3)[nH]c3cnc(O)cc32)CC1", "IC50": "< 0.05 µM"}
{"smiles-code": "COC(=O)[C@H]1CC[C@@H](n2c(NC(=O)c3ccccc3)nc3ccc(CO)cc32)CC1", "IC50": "< 0.05 µM"}
{"smiles-code": "CC(C)NC(=O)[C@H]1CC[C@@H](n2/c(=N/C(=O)NC3CCCCC3)[nH]c3cnc(OCCN4CCCCC4)cc32)CC1", "IC50": "0.1 to 1 µM"}
{"smiles-code": "CC(C)NC(=O)[C@H]1CC[C@@H](n2/c(=N/C(=O)c3cc(F)cc(Cl)c3)[nH]c3cnc(OCCN4CCCCC4)cc32)CC1", "IC50": "< 0.05 µM"}

Source of measurements: patent US9115127B2
